Conditions: buffer; pH 7.4; 200.0 µM
MEASURED ATTRIBUTE: solubility kinetic

Form field solubility kinetic, entry COC(=O)c1cccc(Cn2cc([N+](=O)[O-])cn2)c1 : > 39.2 µg/mL

Form field solubility kinetic, entry CC1CN(C(=S)Nc2ccc(S(N)(=O)=O)cc2)CC(C)O1 (stereo unspecified) : > 49.4 µg/mL

Form field solubility kinetic, entry CC(=O)c1ccc(OC(C)C(=O)NCC2(N3CCOCC3)CCCCC2)cc1 (stereo unspecified) : > 58.3 µg/mL

###

Reported values of solubility kinetic for individual entries
Conditions: buffer; pH 7.4; 200.0 µM

Some solved cases for reference:
>>> df
                                   compound  measured_attribute  observed_result
0       O=C(Cc1ccccc1)NCC(=O)N/N=C/c1cccnc1  solubility kinetic   > 0.0444 mg/mL
1               CCc1sc(-c2ccccc2)nc1C(=O)OC  solubility kinetic   < 0.0005 mg/mL
2  CC(=O)/C(C#N)=C1\NC(=O)C(Cc2ccc(C)c(Cl)c2)S1 (stereo not given)  solubility kinetic   > 0.0481 mg/mL
3             CCCc1c(O)nc(SCC(=O)O)[nH]c1=O  solubility kinetic   > 0.0366 mg/mL

Let us move to another entry and its solubility kinetic.
Form field solubility kinetic, entry CN1CCN(S(=O)(=O)c2ccc(NC(=O)c3cccc(F)c3)cc2)CC1 : > 0.0566 mg/mL

###

Conditions: buffer; pH 7.4; 200.0 µM
MEASURED ATTRIBUTE: solubility kinetic

In [3]: df
Out[3]:
                                   compound  measured_attribute  observed_result
0          CCCCNC(=O)COC(=O)c1ccc(N(C)C)cc1  solubility kinetic     > 41.8 µg/mL
1        N#Cc1c(-c2ccccc2)[nH]c(=O)[nH]c1=O  solubility kinetic       > 32 µg/mL
2  CCC(C(=O)O)N1C(=O)C2CCCCC2C1=O (stereo not given)  solubility kinetic     > 35.9 µg/mL
3  Cc1cc(/C=C(\C#N)C(=O)O)c(C)n1CC1CCCO1 (stereo not given)  solubility kinetic     > 41.1 µg/mL
4      CC(=O)Nc1ccccc1C(=O)OCC(=O)Nc1ncccn1  solubility kinetic     > 47.1 µg/mL

Let us move to another entry and its solubility kinetic.
Form field solubility kinetic, entry COc1ccccc1N1C(=O)S/C(=C\c2cccs2)C1=O : < 0.7 µg/mL

###

Settings: buffer; pH 7.4; 200.0 µM
MEASURED ATTRIBUTE: solubility kinetic

>>> print(df.to_string())
                                   compound  measured_attribute  observed_result
0     CN(Cc1ccccc1)C(=O)COC(=O)/C=C/c1ccco1  solubility kinetic     > 44.9 µg/mL
1     CCC(=O)c1cn(CC(=O)Nc2ccccc2)c2ccccc12  solubility kinetic      < 0.3 µg/mL
2        COc1ccccc1-c1nc2cc(Cl)ccc2c(=O)n1O  solubility kinetic     > 45.4 µg/mL
3  COC(=O)C1CCN(C(=O)COc2ccc(S(=O)(=O)N3CCOCC3)cc2Cl)CC1  solubility kinetic     > 69.1 µg/mL
4  S=C(NCc1cccs1)NCC1CCCO1 (configuration not stated)  solubility kinetic     > 38.5 µg/mL
5               Cn1nnc(NC(=O)c2ccc(Br)o2)n1  solubility kinetic     > 40.8 µg/mL

Let us move to another entry and its solubility kinetic.
Form field solubility kinetic, entry O=C(COc1ccc([N+](=O)[O-])cc1Cl)NCC1CCCO1 (configuration not stated) : > 47.2 µg/mL
